biological target: NAD-dependent protein deacylase sirtuin-6 (Homo sapiens) (UniProt Q8N6T7); test: Substrate activity at human N-terminal His-tagged SIRT6 (1 to 355 residues) expressed in Escherichia coli at 5 uM measured after 2 hrs in presence of NAD+ and trypsin by fluorescence assay
Sequence (Q8N6T7 whole entry, the tested form may be a part): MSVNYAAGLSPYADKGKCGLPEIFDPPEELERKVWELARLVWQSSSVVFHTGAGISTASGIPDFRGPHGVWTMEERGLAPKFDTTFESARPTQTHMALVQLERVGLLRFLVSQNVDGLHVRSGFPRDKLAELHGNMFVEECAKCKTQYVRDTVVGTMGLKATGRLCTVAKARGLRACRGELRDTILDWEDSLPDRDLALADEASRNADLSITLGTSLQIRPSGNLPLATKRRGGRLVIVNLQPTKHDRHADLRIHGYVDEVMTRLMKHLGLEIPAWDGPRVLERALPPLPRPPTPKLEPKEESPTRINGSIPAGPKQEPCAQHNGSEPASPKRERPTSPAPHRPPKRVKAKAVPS
Where a SMILES comes first, the peptide text is derived from it. The star is where a group is joined. AMC = Cc1cc(=O)oc2cc(N*)ccc12; Decanoyl = CCCCCCCCCC(=O)*
So I've got a bunch of compounds here, and I need their Activity values.
Give the value, in units of RFU, as a plain number.

Write down the reported Activity of CC(=O)NCCCC[C@H](NC(=O)[C@H](CCCCN)NC(=O)[C@H](Cc1cnc[nH]1)NC(=O)[C@H](CCCNC(=N)N)NC(C)=O)C(=O)Nc1ccc2c(C)cc(=O)oc2c1 (Ac-RHKK(Ac)-{AMC}) , test system: NAD-dependent protein deacylase sirtuin-6 (Homo sapiens) (UniProt Q8N6T7).
0.38

Write down the reported Activity of CCCCCCCCCC(=O)NCCCC[C@H](NC(=O)[C@H](CCCNC(=N)N)NC(=O)[C@H](C)NC(=O)[C@@H](NC(C)=O)[C@@H](C)O)C(=O)Nc1ccc2c(C)cc(=O)oc2c1 (Ac-TARK(Decanoyl)-{AMC}) , test system: NAD-dependent protein deacylase sirtuin-6 (Homo sapiens) (UniProt Q8N6T7).
0.38

Write down the reported Activity of CC(=O)NCCCC[C@H](NC(=O)[C@H](CCCNC(=N)N)NC(=O)[C@H](C)NC(=O)[C@@H](NC(C)=O)[C@@H](C)O)C(=O)Nc1ccc2c(C)cc(=O)oc2c1 (Ac-TARK(Ac)-{AMC}) , test system: NAD-dependent protein deacylase sirtuin-6 (Homo sapiens) (UniProt Q8N6T7).
0.34
